Attribution: patent US8269000B2

target: rat B1R (Rattus norvegicus, UniProt P97583); construct: expressed in transfected cells; host or cells: CHO K1 cells; assay: FLIPR Ca2+ functional study on bradykinin receptor 1 (rB1R CHO K1 cells); type: cell-based; conditions: CHO-K1, % inhibition rat B1R at 10 μM, read-out: % inh. (rat B1R) 10 μM
Reported metric: inhibition at 10 µM (%)
Unit % implied. Number only.

Take a look at these entries with their results.
{"columns": ["Compound", "Study target", "Reported measurement"],
 "data": [
  ["CCCCC1(N(C)C)CCN(c2nccc(OC[C@@H]3CCCN3S(=O)(=O)c3c(C)cc(OC)cc3C)n2)CC1", "rat B1R (Rattus norvegicus, UniProt P97583)", 65],
  ["COc1cc(C)c(S(=O)(=O)NC(C)(C)COc2nccc(N3CCC4(CCN(c5ccncc5)CC4)CC3)n2)c(C)c1", "rat B1R (Rattus norvegicus, UniProt P97583)", 113],
  ["COc1cc(C)c(S(=O)(=O)N(C)C(COc2nccc(N3CCC(OCCN4CCCC4)(c4cccnc4)CC3)n2)c2ccccc2)c(C)c1 (centres unmarked)", "rat B1R (Rattus norvegicus, UniProt P97583)", 78],
  ["COc1cc(C)c(S(=O)(=O)N2CCCC(Oc3nccc(N4CC5CC4CN5Cc4ccncc4)n3)C2)c(C)c1 (centres unmarked)", "rat B1R (Rattus norvegicus, UniProt P97583)", 90],
  ["COc1cc(C)c(S(=O)(=O)N2CCC[C@H]2COc2nccc(N3CCN(c4ccncc4)CC3)n2)c(C)c1", "rat B1R (Rattus norvegicus, UniProt P97583)", 104]
]}

Return reported inhibition at 10 µM; argument: COc1cc(C)c(S(=O)(=O)N2CCCCC2COc2nccc(N3CCC4(CCN(Cc5ccccc5)C4)C3)n2)c(C)c1 (centres unmarked) 104

Now consider COc1cc(C)c(S(=O)(=O)N(C)C(COc2nccc(N3CCC4(CCN(Cc5ccccc5)C4)C3)n2)c2ccccc2)c(C)c1 (centres unmarked) . 68

Now consider `COc1cc(C)c(S(=O)(=O)N(CCOc2nccc(N3CCC(O)(c4cccnc4)CC3)n2)C2CC2)c(C)c1` and answer again. 98

And for COc1cc(C)c(S(=O)(=O)N2CCCCC2COc2ccnc(N3CCN(C)CC3)n2)c(C)c1 (centres unmarked) ? 58

---

Below: a set of entries, each annotated with reported inhibition at 10 µM.
Biological target: rat B1R (Rattus norvegicus)
Construct: expressed in transfected cells; host or cells: CHO K1 cells
Sequence (P97583 1-337): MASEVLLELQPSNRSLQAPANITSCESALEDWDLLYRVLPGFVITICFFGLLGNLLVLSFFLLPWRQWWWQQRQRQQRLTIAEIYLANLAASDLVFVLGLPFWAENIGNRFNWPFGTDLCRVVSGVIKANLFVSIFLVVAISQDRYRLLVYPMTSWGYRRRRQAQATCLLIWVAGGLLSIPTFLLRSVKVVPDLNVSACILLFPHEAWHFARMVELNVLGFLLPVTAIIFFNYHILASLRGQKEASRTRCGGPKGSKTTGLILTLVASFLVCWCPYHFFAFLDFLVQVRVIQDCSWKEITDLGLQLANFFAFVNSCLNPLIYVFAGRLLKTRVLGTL
Assay: FLIPR Ca2+ functional study on bradykinin receptor 1 (rB1R CHO K1 cells)
Assay type: cell-based
Details: CHO-K1, % inhibition rat B1R at 10 μM, read-out: % inh. (rat B1R) 10 μM
Write the answer as a number in %, unit excluded.

{"columns": ["Compound", "Study target", "inhibition at 10 µM [%]"],
 "data": [
  ["COc1cc(C)c(S(=O)(=O)N(C)CCOc2nccc(N3CCC4(CCN(Cc5ccccc5)C4=O)CC3)n2)c(C)c1 [G_CC-046]", "rat B1R (Rattus norvegicus)", 96],
  ["COc1cc(C)c(S(=O)(=O)N(C)C(COc2nccc(N(C)CCN3CCC(O)(c4cccnc4)CC3)n2)c2ccccc2)c(C)c1 (stereo not shown) [G_CC-138]", "rat B1R (Rattus norvegicus)", 56],
  ["COc1cc(C)c(S(=O)(=O)N(C)CCOc2nccc(N3CCC4(CCN(Cc5ccccc5)C4)C3)n2)c(C)c1 (stereo not shown) [G_CC-028]", "rat B1R (Rattus norvegicus)", 104],
  ["COc1cc(C)c(S(=O)(=O)N2c3ccccc3C[C@H]2COc2ccnc(N3CCC(CCN4CCCCC4)CC3)n2)c(C)c1 [H_CC-028]", "rat B1R (Rattus norvegicus)", 83],
  ["COc1cc(C)c(S(=O)(=O)N2CCCCC2COc2nccc(N3CCC4(CC3)CCN(c3ccc(F)cc3)C4=O)n2)c(C)c1 (stereo not shown) [G_CC-038]", "rat B1R (Rattus norvegicus)", 94]
]}

Can you look up inhibition at 10 µM on rat B1R (Rattus norvegicus) for COc1cc(C)c(S(=O)(=O)N2CCCCC2COc2nccc(N3CCC(O)(c4ccccn4)CC3)n2)c(C)c1 (stereo not shown) [G_CC-082] ? 73

Proceed to COc1cc(C)c(S(=O)(=O)N2CCC[C@H]2COc2nccc(N3CCN(C)CC3)n2)c(C)c1 [G_CC-015] 83

---

target: rat B1R (Rattus norvegicus, UniProt P97583); construct: expressed in transfected cells; host or cells: CHO K1 cells; test: FLIPR Ca2+ functional study on bradykinin receptor 1 (rB1R CHO K1 cells); assay type: cell-based; conditions: CHO-K1, % inhibition rat B1R at 10 μM, read-out: % inh. (rat B1R) 10 μM
Reported metric: inhibition at 10 µM (%)
Respond numerically; units are % and should not be typed.

Example cases with answers are listed next.
{"columns": ["Compound", "Study target", "inhibition at 10 µM [%]"],
 "data": [
  ["COc1cc(C)c(S(=O)(=O)N2c3ccccc3C[C@H]2COc2ccnc(N(C)CCCN3CCC(c4ccccc4)(N(C)C)CC3)n2)c(C)c1", "rat B1R (Rattus norvegicus, UniProt P97583)", 75],
  ["COc1cc(C)c(S(=O)(=O)N2CCC[C@H]2COc2nccc(N3CCC(N4CCN(C)CC4)CC3)n2)c(C)c1", "rat B1R (Rattus norvegicus, UniProt P97583)", 98],
  ["COc1cc(C)c(S(=O)(=O)N2CCCCC2COc2nccc(N3CCN(CC4CCN(C)CC4)CC3)n2)c(C)c1 (stereo not shown)", "rat B1R (Rattus norvegicus, UniProt P97583)", 105],
  ["COc1cc(C)c(S(=O)(=O)N2CCCCC2COc2ccnc(N3CCCC3Cc3ccccn3)n2)c(C)c1 (stereo not shown)", "rat B1R (Rattus norvegicus, UniProt P97583)", 77]
]}

Which inhibition at 10 µM value is on record for COc1cc(C)c(S(=O)(=O)N2CCCCC2COc2nccc(N3CCC(c4nc(-c5ccncc5)no4)CC3)n2)c(C)c1 (stereo not shown) ? 93

// repeat for COc1cc(C)c(S(=O)(=O)N(C)C(COc2nccc(N3CCC4(CCN(Cc5ccc(F)cc5)C4=O)CC3)n2)c2ccccc2)c(C)c1 (stereo not shown) and report 88

Likewise for COc1cc(C)c(S(=O)(=O)N(C)C(COc2ccnc(N3[C@@H]4CC[C@H]3CC(Oc3ccncc3)C4)n2)c2ccccc2)c(C)c1 (stereo partly shown) ? 63

---

target: rat B1R (Rattus norvegicus); construct: expressed in transfected cells; host or cells: CHO K1 cells; assay: FLIPR Ca2+ functional study on bradykinin receptor 1 (rB1R CHO K1 cells); assay type: cell-based; conditions: CHO-K1, % inhibition rat B1R at 10 μM, read-out: % inh. (rat B1R) 10 μM
We begin with a simple list: items and their reported inhibition at 10 µM.
Value expressed in %; do not type the unit.

Please review the entries below; each comes with its answer.
{"columns": ["Compound", "inhibition at 10 µM (%)"],
 "data": [
  ["COc1cc(C)c(S(=O)(=O)N2CCC[C@H]2COc2nccc(N3CCC(O)(c4cccs4)CC3)n2)c(C)c1", 105],
  ["COc1cc(C)c(S(=O)(=O)N2CCCCC2COc2nccc(N3CCN(c4ccncc4)CC3)n2)c(C)c1 (stereo not shown)", 102],
  ["COc1cc(C)c(S(=O)(=O)N(C)CCOc2nccc(N3CCC(O)(c4cccnc4)CC3)n2)c(C)c1", 59],
  ["COc1cc(C)c(S(=O)(=O)N(C)CCOc2ccnc(N3CCN(c4ccncc4)CC3)n2)c(C)c1", 51],
  ["COc1cc(C)c(S(=O)(=O)N(CCOc2nccc(N3CC(N4CCc5cc(CN6CCC6)ccc5C4)C3)n2)C2CC2)c(C)c1", 101],
  ["COc1cc(C)c(S(=O)(=O)N2CCC[C@H]2COc2nccc(N3CCC4(CC3)CCN(c3ccc(F)cc3)C4=O)n2)c(C)c1", 96]
]}

Next, consider the following compound.
Any idea what inhibition at 10 µM was measured for `COc1cc(C)c(S(=O)(=O)N2CCC[C@H]2COc2nccc(N3CCC(O)(c4cccnc4)CC3)n2)c(C)c1` ? 102
